system: PYK2; construct: gene PTK2B; settings: concentration: 1 μM,replicates: in singlicate; n = 1;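 note: KINOMEscan kinase panel screen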
The reader will find reported %Inh values listed item by item below.
State just the number; it will be interpreted in %.

Solved cases (5 shown):
1. COc1cccc(C2=C(Nc3cccc(Cl)c3)C(=O)NC2=O)c1; 16
2. CCN1CCN(CCCC(=O)Nc2n[nH]c3nc(-c4ccc(O)cc4)c(Br)cc23)CC1; 0
3. COc1cc2ncn(-c3cc(OCC4CCCCC4)c(C(N)=O)s3)c2cc1OC; 0
4. Cn1ccc2ncnc(Oc3ccc(NC(=O)Nc4cc(C(C)(C)C)on4)c(Cl)c3)c21; 16
5. CCOC(=O)N1CCC(n2cnc(-c3ccc(F)cc3)c2-c2ccnc(N)n2)CC1; 10

The compound Cc1cccc(-c2nc(Nc3ccncc3)c3sccc3n2)n1 showed %Inh equal to 20

The compound O=C(NOCC1CC1)c1cc(Br)c(F)c(F)c1Nc1ccc(I)cc1Cl showed %Inh equal to 0

The compound CNC(=O)c1ccccc1Nc1nc(Nc2cccc(CS(C)(=O)=O)c2)ncc1C.O=CO showed %Inh equal to 99.5

The compound Cn1cc(-c2cccc3c(N)c(C(N)=O)nnc23)cn1 showed %Inh equal to 9

---

The reader will find reported %Inh values listed item by item below.
system: ROS1; details: concentration: 1 μM,replicates: in singlicate; n = 1
Answer format: value, then unit.

Solved cases (3 shown):
1. c1ccc(Oc2ccc(Nc3ccnc4ccc(-c5ccccn5)cc34)cc2)cc1; 10%
2. C[C@@H](Oc1cc(-n2cnc3cc(-c4cnn(C)c4)ccc32)sc1C(N)=O)c1ccccc1Cl; 27%
3. COc1ccc(Nc2nccc(N3CCC(NC(=O)c4cccc(C#N)c4)C3)n2)cc1 (stereo not shown); 23%

The compound CN(c1ccccc1CNc1nc(Nc2ccc3c(c2)CC(=O)N3)ncc1C(F)(F)F)S(C)(=O)=O showed %Inh equal to 96.5%

The compound N#Cc1cccc(C(=O)NC2CCN(c3ccnc(Nc4ccc(F)cc4)n3)C2)c1 (stereo not shown) showed %Inh equal to 13%

The compound CN1CCN(CCNc2nc3cc(Oc4ccc(NC(=O)Nc5cc(C(F)(F)F)ccc5F)cc4)ccc3[nH]2)CC1.Cl.Cl showed %Inh equal to 16%

The compound CCCC(=O)Nc1n[nH]c2ncccc12 showed %Inh equal to 8%

---

test system: ITK; settings: concentration: 1 μM,replicates: in singlicate; n = 1
The reader will find reported %Inh values listed item by item below.
State just the number; it will be interpreted in %.

1. CN(c1cccc(CNc2nc(Nc3ccc4c(c3)CC(=O)N4)ncc2C(F)(F)F)c1)S(C)(=O)=O; 26

The compound CC(C)S(=O)(=O)N1CCN(Cc2ccc3c(c2)nc(NC(=O)c2ccsc2)n3C[C@H](O)c2ccccc2)CC1 showed %Inh equal to 97.6

The compound CC(=O)c1c(-c2ccncc2)[nH]c(-c2ccncc2)c1C showed %Inh equal to 13

The compound COc1cc2nccc(Nc3ccc(Oc4ccccc4)cc3)c2cc1OC.Cl showed %Inh equal to 0

The compound C[C@@H]1CCN(C(=O)N2CCCC2)C[C@@H]1N(C)c1ncnc2[nH]ccc12 showed %Inh equal to 0

The compound CCN1CCN(CCCC(=O)Nc2n[nH]c3nc(-c4ccc(O)cc4)c(Br)cc23)CC1 showed %Inh equal to 98.8

---

system: YSK4; construct: gene MAP3K19; conditions: concentration: 1 μM,replicates: in singlicate; n = 1
So basically: %Inh at 60% or higher? That is yes. Lower than 60%? That is no.

A selection of reference data follows.
1) C[C@@H](Oc1cc(-n2cnc3cc(-c4cnn(C)c4)ccc32)sc1C(N)=O)c1ccccc1Cl; yes
2) Cn1ccc2ncnc(Oc3ccc(NC(=O)Nc4cccc(C(F)(F)F)c4)c(Cl)c3)c21; yes
3) CC(=O)c1c(-c2ccncc2)[nH]c(-c2ccncc2)c1C; yes
4) Cn1ccc2ncnc(Oc3ccc(NC(=O)Nc4cc(C(C)(C)C)on4)c(Cl)c3)c21; yes
5) O=C(Nc1ccccc1)c1cccc(Oc2ccc3nccn3n2)c1; no
6) COc1cc2ncn(-c3cc(OCC4CCCCC4)c(C(N)=O)s3)c2cc1OC; no
7) Nc1nccc(-c2ccc3c(N)n[nH]c3c2)n1; yes
8) C[C@@H]1CNc2c(sc3ccc4nc(-c5ccncc5)ccc4c23)C(=O)N1; no

Problem: Quick check: does FC(F)(F)c1cc(Br)cc(Nc2nccc(-c3cnn4ncccc34)n2)c1 have %Inh greater than or equal to 60%?
Result: yes

Problem: Quick check: does COc1cc2c(Nc3ccc(NC(=O)c4ccccc4)cc3)ncnc2cc1OCCCN1CCOCC1 have %Inh greater than or equal to 60%?
Result: no

Problem: Quick check: does CN1CCN(CCNc2nc3cc(Oc4ccc(NC(=O)Nc5cc(C(F)(F)F)ccc5F)cc4)ccc3[nH]2)CC1.Cl.Cl have %Inh greater than or equal to 60%?
Result: no

Problem: Quick check: does CN1CCN(CCCNc2nccc(-c3c(-c4ccc(F)cc4)nn4cc(C(N)=O)ccc34)n2)CC1 have %Inh greater than or equal to 60%?
Result: no

---

test system: RIPK4; conditions: concentration: 1 μM,replicates: in singlicate; n = 1
attribute.measured: %Inh (%)
State just the number; it will be interpreted in %.

1) O=C(Nc1ccc(Oc2ccc3nc(NC(=O)C4CC4)cn3n2)c(F)c1)c1cccn(-c2ccccc2)c1=O; 0
2) Cc1ccn2nc(-c3ccc(F)cc3)c(-c3ccncc3)c2c1.Cl; 6
3) CN(c1cccc(CNc2nc(Nc3ccc4c(c3)CC(=O)N4)ncc2C(F)(F)F)c1)S(C)(=O)=O; 0
4) C[C@@H]1CNc2c(sc3ccc4nc(-c5ccc(O)cc5)ccc4c23)C(=O)N1; 3
5) Cl.Cl.NC[C@H](CC1CCCCC1)NC(=O)c1ccc(-c2ccnc3[nH]ccc23)s1; 0
6) O=C(Nc1ccccc1)c1cccc(Oc2ccc3nccn3n2)c1; 26
7) Cn1cc(-c2cccc3c(N)c(C(N)=O)nnc23)cn1; 37
8) CSc1nccc(-c2c(-c3ccc(F)cc3)ncn2CCCN2CCOCC2)n1.Cl; 3

Let's switch to this compound now.
The compound Cl.c1ccc(Oc2ccc(Nc3ccnc4cc(-c5ccc(CN6CCNCC6)o5)ccc34)cc2)nc1 showed %Inh equal to 0

---

test system: IRAK3; conditions: concentration: 1 μM,replicates: in singlicate; n = 1
attribute.measured: %Inh (%)
State just the number; it will be interpreted in %.

Solved cases (6 shown):
1) CCCC(=O)Nc1n[nH]c2ncccc12; 0
2) CS(=O)c1ccc(-c2coc3ccc(-c4n[nH]c(=O)o4)cc23)cc1 (stereo not drawn); 0
3) CC(=O)Nc1nc2cnc(Nc3cc(NC(=O)c4cccc(CC(C)(C)C#N)c4)ccc3C)nc2s1; 27
4) O=C(Nc1cccc(C(F)(F)F)c1)c1cccc(Oc2ccc3nccn3n2)c1; 0
5) Cc1cccc2c(-c3ccncc3)c(-c3ccc(F)cc3)nn12.Cl; 0
6) c1ccc(Oc2ccc(Nc3ccnc4ccc(-c5ccccn5)cc34)cc2)cc1; 13

The molecule CN(c1cccc(CNc2nc(Nc3ccc4c(c3)CC(=O)N4)ncc2C(F)(F)F)c1)S(C)(=O)=O showed %Inh equal to 22

The molecule COc1cc2nccc(Nc3ccc(Oc4ccccc4)cc3)c2cc1OC.Cl showed %Inh equal to 0

The molecule Cc1ccn2nc(-c3ccc(F)cc3)c(-c3ccncc3)c2c1.Cl showed %Inh equal to 0

---

system: CLK2; conditions: concentration: 1 μM,replicates: in singlicate; n = 1
%Inh strictly less than 20% = True. Otherwise False.

1. CC(C)S(=O)(=O)N1CCN(Cc2ccc3c(c2)nc(NC(=O)c2ccsc2)n3C[C@H](O)c2ccccc2)CC1; False
2. CCn1c(-c2nonc2N)nc2cncc(CNC3CCNCC3)c21.Cl; True
3. CCCC(=O)Nc1n[nH]c2ncccc12; True

Problem: Field: below-cutoff. Rule: recorded %Inh strictly less than 20%. Subject: O=C1NCCc2[nH]c(-c3ccncc3)cc21
Result: False

Problem: Field: below-cutoff. Rule: recorded %Inh strictly less than 20%. Subject: CS(=O)(=O)Nc1ccc(-c2ccnc3[nH]ccc23)cc1
Result: False

Problem: Field: below-cutoff. Rule: recorded %Inh strictly less than 20%. Subject: O=C(Nc1ccc(Oc2ccc3nc(NC(=O)C4CC4)cn3n2)c(F)c1)c1cccn(-c2ccccc2)c1=O
Result: True

Problem: Field: below-cutoff. Rule: recorded %Inh strictly less than 20%. Subject: COc1cc2c(Nc3ccc(NC(=O)c4ccccc4)cc3)ncnc2cc1OCCCN1CCOCC1
Result: True

Problem: Field: below-cutoff. Rule: recorded %Inh strictly less than 20%. Subject: Cn1ccc2ncnc(Oc3ccc(NC(=O)Nc4cnn(C(C)(C)C)c4)c(Cl)c3)c21
Result: True

Problem: Field: below-cutoff. Rule: recorded %Inh strictly less than 20%. Subject: O=C(NCC1CC1)c1ccc(-c2cc(C(=O)NC3CC3)ccc2F)cc1
Result: True

# credit: paper PMC5540273
